Molecular target: Toll-like receptor 7 (Mus musculus)
Assay: Agonist activity at TLR7 in mouse RAW264.7 cells assessed as immunostimulatory activity by measuring increase in TNFalpha secretion incubated for 18 hrs by ELISA
Assay type: cell-based
pEC50: −log10 of the molar value.
measured-endpoint: pEC50

[
  {
    "molecule": "COCCOc1nc(N)c2nc(O)n(Cc3ccc(C(=O)NC4O[C@H](CO)[C@H](O)[C@H](O)[C@H]4O)cc3)c2n1 (stereo partly specified)",
    "pEC50": 6.50
  },
  {
    "molecule": "COCCOc1nc(N)c2nc(O)n(Cc3ccc(C(=O)NC[C@H]4O[C@@H]5O[C@H]6[C@H](O)[C@@H](O)[C@@H](O[C@H]7[C@H](O)[C@@H](O)[C@@H](O[C@H]8[C@H](O)[C@@H](O)[C@@H](O[C@H]9[C@H](O)[C@@H](O)[C@@H](O[C@H]%10[C@H](O)[C@@H](O)[C@@H](O[C@H]%11[C@H](O)[C@@H](O)[C@@H](O[C@H]4[C@H](O)[C@H]5O)O[C@@H]%11CO)O[C@@H]%10CO)O[C@@H]9CO)O[C@@H]8CO)O[C@@H]7CO)O[C@@H]6CO)cc3)c2n1",
    "pEC50": 6.54
  },
  {
    "molecule": "COCCOc1nc(N)c2nc(O)n(Cc3ccc(C(=O)NC[C@H]4O[C@@H]5O[C@H]6[C@H](O)[C@@H](O)[C@@H](O[C@H]7[C@H](O)[C@@H](O)[C@@H](O[C@H]8[C@H](O)[C@@H](O)[C@@H](O[C@H]9[C@H](O)[C@@H](O)[C@@H](O[C@H]%10[C@H](O)[C@@H](O)[C@@H](O[C@H]%11[C@H](O)[C@@H](O)[C@@H](O[C@H]%12[C@H](O)[C@@H](O)[C@@H](O[C@H]4[C@H](O)[C@H]5O)O[C@@H]%12CO)O[C@@H]%11CO)O[C@@H]%10CO)O[C@@H]9CO)O[C@@H]8CO)O[C@@H]7CO)O[C@@H]6CO)cc3)c2n1",
    "pEC50": 6.88
  },
  {
    "molecule": "COCCOc1nc(N)c2nc(O)n(Cc3ccc(C(=O)NC4O[C@H](CO)[C@@H](O[C@@H]5O[C@H](CO)[C@H](O)[C@H](O)[C@H]5O)[C@H](O)[C@H]4O)cc3)c2n1 (stereo partly specified)",
    "pEC50": 7.10
  },
  {
    "molecule": "COCCOc1nc(N)c2nc(O)n(Cc3ccc(C(=O)N[C@H]4C(O)O[C@H](CO)[C@H](O)[C@@H]4O)cc3)c2n1 (stereo partly specified)",
    "pEC50": 6.82
  }
]

P: COCCOc1nc(N)c2[nH]c(=O)n(Cc3ccc(C(=O)O)cc3)c2n1
Q: COCCOc1nc(N)c2nc(O)n(Cc3ccc(C(=O)NC4O[C@H](CO)[C@@H](O[C@H]5O[C@H](CO)[C@@H](O)[C@H](O)[C@H]5O)[C@H](O)[C@H]4O)cc3)c2n1 (stereo partly specified)
[in] Problem: Given the entries P and Q , determine which has the lower reported pEC50. To answer, give the label that identifies your chosen option.
[out] P
(P: 6.60, Q: 6.87)

----------
Biological target: UniProtKB P58681
Sequence (whole entry): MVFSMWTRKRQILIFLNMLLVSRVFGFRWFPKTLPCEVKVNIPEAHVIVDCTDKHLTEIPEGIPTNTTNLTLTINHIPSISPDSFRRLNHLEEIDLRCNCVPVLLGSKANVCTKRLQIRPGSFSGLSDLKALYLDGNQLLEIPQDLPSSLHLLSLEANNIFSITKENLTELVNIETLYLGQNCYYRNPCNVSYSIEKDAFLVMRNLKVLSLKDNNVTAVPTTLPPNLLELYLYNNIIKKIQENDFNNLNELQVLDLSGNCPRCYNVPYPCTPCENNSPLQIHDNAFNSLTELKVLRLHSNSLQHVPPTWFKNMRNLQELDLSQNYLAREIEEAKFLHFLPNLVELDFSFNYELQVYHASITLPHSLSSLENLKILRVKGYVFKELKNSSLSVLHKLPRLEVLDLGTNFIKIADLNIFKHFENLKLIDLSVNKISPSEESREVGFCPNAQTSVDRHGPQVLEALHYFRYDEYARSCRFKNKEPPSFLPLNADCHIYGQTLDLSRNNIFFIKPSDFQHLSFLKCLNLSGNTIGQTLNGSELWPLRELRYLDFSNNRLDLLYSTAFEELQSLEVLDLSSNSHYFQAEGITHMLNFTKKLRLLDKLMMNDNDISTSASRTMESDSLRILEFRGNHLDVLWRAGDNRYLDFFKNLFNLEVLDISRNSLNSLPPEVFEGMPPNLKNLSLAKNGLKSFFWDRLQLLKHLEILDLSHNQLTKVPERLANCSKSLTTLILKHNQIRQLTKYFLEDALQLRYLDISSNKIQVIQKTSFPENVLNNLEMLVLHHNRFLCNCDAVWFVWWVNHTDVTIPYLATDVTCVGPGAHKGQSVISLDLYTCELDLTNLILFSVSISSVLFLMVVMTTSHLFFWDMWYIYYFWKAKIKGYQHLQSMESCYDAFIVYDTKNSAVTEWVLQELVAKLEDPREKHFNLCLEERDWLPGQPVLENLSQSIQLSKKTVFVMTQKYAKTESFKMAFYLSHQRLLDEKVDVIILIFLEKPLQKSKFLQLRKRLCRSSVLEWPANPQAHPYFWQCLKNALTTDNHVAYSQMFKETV
Experiment: Agonist activity at TLR7 in mouse BMDC cells assessed as immunostimulatory activity by measuring increase in IL6 secretion incubated for 18 hrs by ELISA relative to 1V209
Assay type: cell-based
measured-endpoint: Emax (%)

Example entries begin here.
[
  {
    "molecule": "COCCOc1nc(N)c2nc(O)n(Cc3ccc(C(=O)N[C@H]4C(O)O[C@H](CO)[C@@H](O)[C@@H]4O)cc3)c2n1 (stereo partly specified)",
    "measurement-unit": "%",
    "Emax": 139
  },
  {
    "molecule": "COCCOc1nc(N)c2nc(O)n(Cc3ccc(C(=O)NC4O[C@H](CO)[C@@H](O)[C@H](O)[C@@H]4O)cc3)c2n1 (stereo partly specified)",
    "measurement-unit": "%",
    "Emax": 116
  },
  {
    "molecule": "COCCOc1nc(N)c2nc(O)n(Cc3ccc(C(=O)NC[C@H]4O[C@@H]5O[C@H]6[C@H](O)[C@@H](O)[C@@H](O[C@H]7[C@H](O)[C@@H](O)[C@@H](O[C@H]8[C@H](O)[C@@H](O)[C@@H](O[C@H]9[C@H](O)[C@@H](O)[C@@H](O[C@H]%10[C@H](O)[C@@H](O)[C@@H](O[C@H]%11[C@H](O)[C@@H](O)[C@@H](O[C@H]%12[C@H](O)[C@@H](O)[C@@H](O[C@H]4[C@H](O)[C@H]5O)O[C@@H]%12CO)O[C@@H]%11CO)O[C@@H]%10CO)O[C@@H]9CO)O[C@@H]8CO)O[C@@H]7CO)O[C@@H]6CO)cc3)c2n1",
    "measurement-unit": "%",
    "Emax": 130
  },
  {
    "molecule": "COCCOc1nc(N)c2nc(O)n(Cc3ccc(C(=O)N[C@H]4C(O)O[C@H](CO)[C@H](O)[C@@H]4O)cc3)c2n1 (stereo partly specified)",
    "measurement-unit": "%",
    "Emax": 139
  },
  {
    "molecule": "COCCOc1nc(N)c2nc(O)n(Cc3ccc(C(=O)NC4O[C@H](CO)[C@@H](O[C@@H]5O[C@H](CO)[C@H](O)[C@H](O)[C@H]5O)[C@H](O)[C@H]4O)cc3)c2n1 (stereo partly specified)",
    "measurement-unit": "%",
    "Emax": 142
  }
]

a: COCCOc1nc(N)c2nc(O)n(Cc3ccc(C(=O)NC4O[C@H](CO)[C@@H](O[C@H]5O[C@H](CO)[C@@H](O)[C@H](O)[C@H]5O)[C@H](O)[C@H]4O)cc3)c2n1 (stereo partly specified)
b: COCCOc1nc(N)c2[nH]c(=O)n(Cc3ccc(C(=O)O)cc3)c2n1
[in] Determine, for a and b , which has the greater value of Emax. To answer, give the label that identifies your chosen option.
[out] a

----------
Biological target: Toll-like receptor 7 (Mus musculus)
Experiment: Agonist activity at TLR7 in mouse BMDC cells assessed as immunostimulatory activity by measuring increase in IL6 secretion incubated for 18 hrs by ELISA
Assay type: cell-based
measured-endpoint: EC50 (nM)

[
  {
    "compound": "COCCOc1nc(N)c2nc(O)n(Cc3ccc(C(=O)NC4O[C@H](CO)[C@H](O)[C@H](O)[C@H]4O)cc3)c2n1 (stereo not given in full)",
    "observed-value": 258
  },
  {
    "compound": "COCCOc1nc(N)c2nc(O)n(Cc3ccc(C(=O)NC[C@H]4O[C@@H]5O[C@H]6[C@H](O)[C@@H](O)[C@@H](O[C@H]7[C@H](O)[C@@H](O)[C@@H](O[C@H]8[C@H](O)[C@@H](O)[C@@H](O[C@H]9[C@H](O)[C@@H](O)[C@@H](O[C@H]%10[C@H](O)[C@@H](O)[C@@H](O[C@H]4[C@H](O)[C@H]5O)O[C@@H]%10CO)O[C@@H]9CO)O[C@@H]8CO)O[C@@H]7CO)O[C@@H]6CO)cc3)c2n1",
    "observed-value": 71
  },
  {
    "compound": "COCCOc1nc(N)c2nc(O)n(Cc3ccc(C(=O)NC[C@H]4O[C@@H]5O[C@H]6[C@H](O)[C@@H](O)[C@@H](O[C@H]7[C@H](O)[C@@H](O)[C@@H](O[C@H]8[C@H](O)[C@@H](O)[C@@H](O[C@H]9[C@H](O)[C@@H](O)[C@@H](O[C@H]%10[C@H](O)[C@@H](O)[C@@H](O[C@H]%11[C@H](O)[C@@H](O)[C@@H](O[C@H]%12[C@H](O)[C@@H](O)[C@@H](O[C@H]4[C@H](O)[C@H]5O)O[C@@H]%12CO)O[C@@H]%11CO)O[C@@H]%10CO)O[C@@H]9CO)O[C@@H]8CO)O[C@@H]7CO)O[C@@H]6CO)cc3)c2n1",
    "observed-value": 108
  }
]

P: COCCOc1nc(N)c2[nH]c(=O)n(Cc3ccc(C(=O)O)cc3)c2n1
Q: COCCOc1nc(N)c2nc(O)n(Cc3ccc(C(=O)NC4O[C@H](CO)[C@@H](O[C@@H]5O[C@H](CO)[C@H](O)[C@H](O)[C@H]5O)[C@H](O)[C@H]4O)cc3)c2n1 (stereo not given in full)
R: COCCOc1nc(N)c2nc(O)n(Cc3ccc(C(=O)NC4O[C@H](CO)[C@@H](O)[C@H](O)[C@H]4O)cc3)c2n1 (stereo not given in full)
S: COCCOc1nc(N)c2nc(O)n(Cc3ccc(C(=O)NC4O[C@H](CO)[C@@H](O)[C@H](O)[C@@H]4O)cc3)c2n1 (stereo not given in full)
[in] Endpoint returns the given compounds ordered by ascending EC50. Provide the labels, sequenced as the question asks.
[out] Q, R, S, P
(Q: 110 nM, R: 198 nM, S: 303 nM, P: 434 nM)
